- targetOfAssay: T1, human IL-23 (IL-23-His-Biotin, Akesobio, 20161209) (human, UniProt Q9NPF7 20-189; P29460 23-328)
- T1 construct: His-tagged and biotinylated; also called human IL23-His-Biotin
- T1 sequence (looked up) 1: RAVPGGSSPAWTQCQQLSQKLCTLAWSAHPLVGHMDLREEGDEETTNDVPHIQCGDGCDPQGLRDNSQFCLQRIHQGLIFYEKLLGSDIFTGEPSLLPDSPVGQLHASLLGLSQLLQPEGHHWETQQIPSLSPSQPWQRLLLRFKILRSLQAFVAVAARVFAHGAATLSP
- T1 sequence (looked up) 2: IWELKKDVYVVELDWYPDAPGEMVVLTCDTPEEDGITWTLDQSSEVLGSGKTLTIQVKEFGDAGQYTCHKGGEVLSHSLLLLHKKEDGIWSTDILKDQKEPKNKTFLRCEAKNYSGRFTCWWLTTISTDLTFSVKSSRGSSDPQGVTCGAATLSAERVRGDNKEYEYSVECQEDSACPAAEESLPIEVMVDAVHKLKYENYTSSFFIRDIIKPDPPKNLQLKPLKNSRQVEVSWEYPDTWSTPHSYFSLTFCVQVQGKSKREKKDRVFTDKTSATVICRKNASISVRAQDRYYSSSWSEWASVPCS
- measurementDescription: FACS competition, IL-23-His-Biotin 2 µg/mL on 293T-IL-12RB1&IL-23R cells, antibody 1.11 µg/mL
recordedEndpoint: MFI
Respond using a number only.

| binder | value |
| --- | --- |
| H5L11 (antibody, human IgG1, kappa, V domains shown, IgG1/kappa) VH: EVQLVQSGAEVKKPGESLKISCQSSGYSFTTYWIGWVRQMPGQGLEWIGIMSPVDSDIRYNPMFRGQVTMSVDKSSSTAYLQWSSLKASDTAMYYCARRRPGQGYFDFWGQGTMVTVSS VL: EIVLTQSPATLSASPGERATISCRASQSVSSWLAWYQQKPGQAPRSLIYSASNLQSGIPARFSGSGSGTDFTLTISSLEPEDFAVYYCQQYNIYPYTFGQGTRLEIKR | 97.6 |

I am curious: what MFI value has been reported for ustekinumab (trade name Stelara) (antibody, V domains shown) VH: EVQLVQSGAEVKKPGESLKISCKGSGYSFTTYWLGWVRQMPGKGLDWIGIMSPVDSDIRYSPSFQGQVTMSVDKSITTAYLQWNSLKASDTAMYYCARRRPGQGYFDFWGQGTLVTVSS VL: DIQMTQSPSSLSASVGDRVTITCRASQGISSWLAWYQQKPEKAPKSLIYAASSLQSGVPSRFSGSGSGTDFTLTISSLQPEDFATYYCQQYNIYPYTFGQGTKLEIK ?
121

Source: patent US20260217813A1
